biological target: MMP-2 (Homo sapiens, UniProt P08253); test: biochemical
measurement-kind: pIC50
Hey, just a heads up that pIC50 is the negative log base 10 of the concentration in molar.

Please review the following examples before continuing.
1) N#CCC(N)CC#N.O=C(O)C(F)(F)F [Compound 1b, 3-Aminopentanedinitrile Trifluoroacetate]
3.25
2) N#CCC(N)CO.O=C(O)C(F)(F)F (stereo not drawn)
3.09
3) [N-]=[N+]=NCC(N)Cc1c[nH]cn1 (stereo not drawn)
3.32
4) O=S(=O)(NC(CO)Cc1c[nH]cn1)c1ccc(Oc2ccccc2)cc1 (stereo not drawn) [Compound 25e]
3.72
5) N#CCC(N)CS (stereo not drawn)
3.30

stdin: Give pIC50 only, for [N-]=[N+]=NCC(N)CS (stereo not drawn) , using MMP-2 (Homo sapiens, UniProt P08253) data.
stdout: 3.28

* * *

target: MMP-9 (Homo sapiens); assay: MMP inhibition fluorometric assay, MMP-9; conditions: experimental binding energy from activity data; racemic mixture tested
Sequence (P14780 107-707 limits assumed): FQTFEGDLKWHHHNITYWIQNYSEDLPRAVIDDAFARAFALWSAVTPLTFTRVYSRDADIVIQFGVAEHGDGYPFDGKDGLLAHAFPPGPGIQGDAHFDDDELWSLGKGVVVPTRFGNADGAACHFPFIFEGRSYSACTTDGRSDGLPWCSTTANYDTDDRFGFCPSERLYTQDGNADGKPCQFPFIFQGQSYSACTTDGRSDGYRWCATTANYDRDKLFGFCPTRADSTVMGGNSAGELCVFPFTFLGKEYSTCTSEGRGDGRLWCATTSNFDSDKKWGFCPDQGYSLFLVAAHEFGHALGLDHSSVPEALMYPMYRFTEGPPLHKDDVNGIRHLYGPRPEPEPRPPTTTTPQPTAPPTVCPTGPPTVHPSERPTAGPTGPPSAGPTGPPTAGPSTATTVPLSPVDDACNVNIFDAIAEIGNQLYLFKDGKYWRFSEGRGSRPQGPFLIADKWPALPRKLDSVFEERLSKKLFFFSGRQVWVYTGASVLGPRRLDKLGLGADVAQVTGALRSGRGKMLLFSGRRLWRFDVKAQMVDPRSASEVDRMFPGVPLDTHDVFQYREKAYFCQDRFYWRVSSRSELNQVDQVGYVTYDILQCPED
// values below are reported ΔG exp MMP-9
Numbers only here, please. The scale is kcal.

1. O=S(=O)(N[C@H](CO)CS)c1ccc(Oc2ccccc2)cc1 (racemic) [25d R]
-6.705
2. O=S(=O)(N[C@@H](CO)CS)c1ccc(Oc2ccccc2)cc1 [25d S]
-6.705
3. Cl.O=S(=O)(N[C@H](CO)Cc1c[nH]cn1)c1ccc(Oc2ccccc2)cc1 [25e S]
-5.042
4. Cl.O=S(=O)(N[C@@H](CO)Cc1c[nH]cn1)c1ccc(Oc2ccccc2)cc1 (racemic) [25e R]
-5.042

Alright, here's another molecule for you.
stdin: For the molecule O=S(=O)(NC(CO)CO)c1ccc(Oc2ccccc2)cc1 [Compound 25a] , give its reported ΔG exp MMP-9.
stdout: -5.178

* * *

Biological target: MMP-2 (Homo sapiens, UniProt P08253)
Sequence (P08253 110-660): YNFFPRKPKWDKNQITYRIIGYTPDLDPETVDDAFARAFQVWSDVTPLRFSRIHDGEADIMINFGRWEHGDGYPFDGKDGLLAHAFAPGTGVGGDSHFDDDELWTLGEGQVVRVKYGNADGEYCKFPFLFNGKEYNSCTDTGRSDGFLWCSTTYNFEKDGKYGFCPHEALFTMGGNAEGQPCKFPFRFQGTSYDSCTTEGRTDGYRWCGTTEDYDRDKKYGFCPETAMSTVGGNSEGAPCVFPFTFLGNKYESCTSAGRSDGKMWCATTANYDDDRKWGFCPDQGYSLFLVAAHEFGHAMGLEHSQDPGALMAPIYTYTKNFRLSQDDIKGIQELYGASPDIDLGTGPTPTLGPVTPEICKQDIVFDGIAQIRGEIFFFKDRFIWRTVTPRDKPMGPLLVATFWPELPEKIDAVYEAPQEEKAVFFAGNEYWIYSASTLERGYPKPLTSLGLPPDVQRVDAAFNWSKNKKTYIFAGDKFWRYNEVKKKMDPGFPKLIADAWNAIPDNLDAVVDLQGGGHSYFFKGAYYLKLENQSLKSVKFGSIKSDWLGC
Assay: biochemical
measurement-kind: IC50
Include the unit right after the number.

See these solved cases before continuing.
1. NC(CO)CO [Compound 1a, 2-aminopropane-1,3-diol]
280 µM
2. O=S(=O)(NC(CO)CS)c1ccc(Oc2ccccc2)cc1 (stereo not shown) [Compound 25d]
110 µM
3. NC(CO)Cc1c[nH]cn1 (stereo not shown) [Compound 1e]
450 µM

Next, consider the following molecule.
stdin: Supply reported IC50 belonging to this molecule: O=S(=O)(NC(CO)CO)c1ccc(Oc2ccccc2)cc1 [Compound 25a]
stdout: 71 µM

* * *

Let's go through some IC50 measurements on MMP-8 (Homo sapiens, UniProt P22894) together.
Sequence (P22894 101-467): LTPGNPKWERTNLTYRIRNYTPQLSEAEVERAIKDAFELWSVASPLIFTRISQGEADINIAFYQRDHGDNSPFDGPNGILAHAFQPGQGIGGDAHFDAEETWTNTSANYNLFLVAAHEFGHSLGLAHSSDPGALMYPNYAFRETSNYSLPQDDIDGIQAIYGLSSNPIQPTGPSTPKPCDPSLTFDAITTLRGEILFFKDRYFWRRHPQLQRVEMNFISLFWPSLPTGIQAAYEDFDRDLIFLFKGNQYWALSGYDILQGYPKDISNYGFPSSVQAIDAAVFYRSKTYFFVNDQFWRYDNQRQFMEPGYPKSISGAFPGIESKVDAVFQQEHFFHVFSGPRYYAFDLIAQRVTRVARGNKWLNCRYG
Answer in µM, number only, no unit symbol.

Some solved entries appear below for comparison.
1. O=S(=O)(NC(CO)Cc1c[nH]cn1)c1ccc(Oc2ccccc2)cc1 (stereo not drawn) [Compound 25e]
330
2. O=S(=O)(NC(CO)CS)c1ccc(Oc2ccccc2)cc1 (stereo not drawn) [Compound 25d]
9.1

Consider now this further molecule.
stdin: Let me know recorded IC50 for O=S(=O)(NC(CO)CO)c1ccc(Oc2ccccc2)cc1 [Compound 25a] , thanks.
stdout: 98

* * *

# key: entry, value: IC50
Target protein (sequence): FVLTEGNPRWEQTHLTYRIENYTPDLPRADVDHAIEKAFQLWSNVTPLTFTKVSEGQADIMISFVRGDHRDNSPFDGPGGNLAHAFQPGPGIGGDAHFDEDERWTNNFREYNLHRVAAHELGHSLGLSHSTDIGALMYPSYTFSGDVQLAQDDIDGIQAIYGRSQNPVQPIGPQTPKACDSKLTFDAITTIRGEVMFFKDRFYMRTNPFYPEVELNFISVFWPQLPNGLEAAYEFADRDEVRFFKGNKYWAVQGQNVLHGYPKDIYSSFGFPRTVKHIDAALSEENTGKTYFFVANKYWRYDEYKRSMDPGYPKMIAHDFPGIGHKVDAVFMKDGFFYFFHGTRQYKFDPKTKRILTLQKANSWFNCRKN
Number only, in µM; omit the unit.

These solved cases illustrate the format of a correct answer.
1) O=S(=O)(NC(CO)Cc1c[nH]cn1)c1ccc(Oc2ccccc2)cc1 (stereo not drawn) [Compound 25e]
480
2) O=S(=O)(NC(CO)CO)c1ccc(Oc2ccccc2)cc1 [Compound 25a]
1030

stdin: Given O=S(=O)(NC(CO)CS)c1ccc(Oc2ccccc2)cc1 (stereo not drawn) [Compound 25d] , respond with its IC50.
stdout: 819
